target: human TLR9 (Homo sapiens (Human)); test: TLR9 inhibition reporter assay (HEK-Blue cells, SEAP reporter, ODN2006 stimulation); conditions: read-out: TLR9 IC50, HEK-Blue cells overexpressing human TLR9, ODN2006 5 nM
TEST_READOUT: IC50

| CHEMICAL_STRUCTURE | TEST_READOUT | RESULT |
| --- | --- | --- |
| COC(=O)N1CCC(c2ccc3[nH]c(-c4ccnc(C)c4)c(C(C)C)c3c2)CC1 | IC50 | > 50 µM |
| Cc1cc(-c2[nH]c3ccc(C4CCN(C(=O)CN5CCCC5=O)CC4)cc3c2C(C)C)cc(C)n1 | IC50 | > 50 µM |
| Cc1cc(-c2[nH]c3ccc(C4CCN(Cc5nnc(C6CC6)o5)CC4)cc3c2C(C)C)c(C)cn1 | IC50 | > 50 µM |

---

target: UniProt Q9NR96; experiment: TLR9 inhibition reporter assay (HEK-Blue cells, SEAP reporter, ODN2006 stimulation); conditions: read-out: TLR9 IC50, HEK-Blue cells overexpressing human TLR9, ODN2006 5 nM
TEST_READOUT: IC50

| CHEMICAL_STRUCTURE | RESULT |
| --- | --- |
| Cc1cc(-c2[nH]c3ccc(C4CCN(C(=O)CC(F)(F)F)CC4)cc3c2C(C)C)ccn1 | > 50 µM |
| Cc1cc(-c2[nH]c3ccc(C4CCN(Cc5nnn[nH]5)CC4)cc3c2C(C)C)c(C)cn1 | > 50 µM |
| Cc1cc(-c2[nH]c3ccc(C4CCN(S(=O)(=O)CC(F)(F)F)CC4)cc3c2C(C)C)ccn1 | > 50 µM |

---

biological target: human TLR9 (Homo sapiens (Human), UniProt Q9NR96); test: TLR9 inhibition reporter assay (HEK-Blue cells, SEAP reporter, ODN2006 stimulation); settings: read-out: TLR9 IC50, HEK-Blue cells overexpressing human TLR9, ODN2006 5 nM;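 further: compounds tested over 0.05 nM to 50 µM, 22 h incubation, inhibition taken as SEAP signal drop from agonist plus DMSO wells toward a known inhibitor control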
Sequence (Q9NR96 26-1032): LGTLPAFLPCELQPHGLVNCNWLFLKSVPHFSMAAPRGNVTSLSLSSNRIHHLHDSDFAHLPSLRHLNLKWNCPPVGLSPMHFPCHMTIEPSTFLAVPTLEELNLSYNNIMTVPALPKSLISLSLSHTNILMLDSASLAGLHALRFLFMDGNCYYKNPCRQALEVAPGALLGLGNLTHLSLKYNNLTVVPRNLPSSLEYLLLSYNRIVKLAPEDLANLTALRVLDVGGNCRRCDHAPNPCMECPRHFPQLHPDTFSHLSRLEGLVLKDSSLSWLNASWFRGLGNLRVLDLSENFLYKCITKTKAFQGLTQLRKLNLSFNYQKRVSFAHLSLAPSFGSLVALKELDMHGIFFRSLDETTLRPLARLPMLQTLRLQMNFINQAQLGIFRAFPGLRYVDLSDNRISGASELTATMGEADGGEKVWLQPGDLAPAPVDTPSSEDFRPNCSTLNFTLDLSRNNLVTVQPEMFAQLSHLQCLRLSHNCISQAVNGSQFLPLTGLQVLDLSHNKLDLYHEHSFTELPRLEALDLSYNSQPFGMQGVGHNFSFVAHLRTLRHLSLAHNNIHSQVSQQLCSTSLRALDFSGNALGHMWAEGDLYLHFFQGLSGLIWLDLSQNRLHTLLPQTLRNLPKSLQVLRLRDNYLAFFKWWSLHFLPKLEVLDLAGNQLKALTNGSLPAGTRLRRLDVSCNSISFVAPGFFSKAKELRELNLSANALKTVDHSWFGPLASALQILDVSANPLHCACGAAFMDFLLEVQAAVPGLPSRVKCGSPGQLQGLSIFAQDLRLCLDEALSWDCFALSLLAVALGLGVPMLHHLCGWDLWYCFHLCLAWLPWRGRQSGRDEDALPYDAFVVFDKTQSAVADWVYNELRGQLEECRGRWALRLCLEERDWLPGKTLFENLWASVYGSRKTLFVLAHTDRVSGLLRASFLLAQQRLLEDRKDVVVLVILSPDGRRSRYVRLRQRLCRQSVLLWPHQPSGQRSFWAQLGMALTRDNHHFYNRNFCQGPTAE
TEST_READOUT: IC50 (nM)

| COMPOUND | STUDY_SYSTEM | TEST_READOUT | ENDPOINT_UNIT | NUMERIC_VALUE |
| --- | --- | --- | --- | --- |
| Cc1cc(-c2[nH]c3ccc(C4CCN(CC(=O)NCC5(C)CC5)CC4)cc3c2C(C)C)cc(C)n1 | human TLR9 (Homo sapiens (Human), UniProt Q9NR96) | IC50 | nM | 654 |
| Cc1cc(-c2[nH]c3ccc(C4CCN(C(=O)CN(C)C(C)(C)C)CC4)cc3c2C(C)C)cc(C)n1 | human TLR9 (Homo sapiens (Human), UniProt Q9NR96) | IC50 | nM | 826 |
| CCCCN(CCO)CC(=O)N1CCC(c2ccc3[nH]c(-c4cc(C)nc(C)c4)c(C(C)C)c3c2)CC1 | human TLR9 (Homo sapiens (Human), UniProt Q9NR96) | IC50 | nM | 924 |
| Cc1cc(C(=O)N2CCC(c3ccc4[nH]c(-c5cc(C)nc(C)c5)c(C(C)C)c4c3)CC2)c(=O)[nH]n1 | human TLR9 (Homo sapiens (Human), UniProt Q9NR96) | IC50 | nM | 13300 |
| CNCCN1CCC(c2ccc3[nH]c(-c4ccnc(OC)c4)c(C(C)C)c3c2)CC1 | human TLR9 (Homo sapiens (Human), UniProt Q9NR96) | IC50 | nM | 1010 |
| Cc1cc(-c2[nH]c3ccc(C4CCN(Cc5cc(C)on5)CC4)cc3c2C(C)C)c(C)cn1 | human TLR9 (Homo sapiens (Human), UniProt Q9NR96) | IC50 | nM | 7510 |
| Cc1cc(-c2[nH]c3ccc(C4CCN(C(=O)[C@@]5(C)CCCN5)CC4)cc3c2C(C)C)cc(C)n1 | human TLR9 (Homo sapiens (Human), UniProt Q9NR96) | IC50 | nM | 154 |
| Cc1cc(-c2[nH]c3ccc(C4CCN(C5CC(C)OC(C)C5)CC4)cc3c2C(C)C)cc(C)n1 (centres unmarked) [Example 454] | human TLR9 (Homo sapiens (Human), UniProt Q9NR96) | IC50 | nM | 358 |
| CCc1c(-c2ccnc(N)c2)[nH]c2ccc(C3CCNCC3)cc12 | human TLR9 (Homo sapiens (Human), UniProt Q9NR96) | IC50 | nM | 114 |
| Cc1cc(-c2[nH]c3ccc(C4CCNCC4)cc3c2C(C)C)c([N+](=O)[O-])c(C)n1 | human TLR9 (Homo sapiens (Human), UniProt Q9NR96) | IC50 | nM | 2970 |
| Cc1cc(-c2[nH]c3ccc(C4CCN(C(=O)CN5CCC(F)(F)C5)CC4)cc3c2C(C)C)cc(C)n1 | human TLR9 (Homo sapiens (Human), UniProt Q9NR96) | IC50 | nM | 25400 |

---

target: human TLR7 (Homo sapiens (Human), UniProt Q9NYK1); test: TLR7 inhibition reporter assay (HEK-Blue cells, SEAP reporter, gardiquimod stimulation); assay type: cell-based; conditions: HEK-Blue cells overexpressing human TLR7, gardiquimod 7.5 μM
Sequence (Q9NYK1 27-1049): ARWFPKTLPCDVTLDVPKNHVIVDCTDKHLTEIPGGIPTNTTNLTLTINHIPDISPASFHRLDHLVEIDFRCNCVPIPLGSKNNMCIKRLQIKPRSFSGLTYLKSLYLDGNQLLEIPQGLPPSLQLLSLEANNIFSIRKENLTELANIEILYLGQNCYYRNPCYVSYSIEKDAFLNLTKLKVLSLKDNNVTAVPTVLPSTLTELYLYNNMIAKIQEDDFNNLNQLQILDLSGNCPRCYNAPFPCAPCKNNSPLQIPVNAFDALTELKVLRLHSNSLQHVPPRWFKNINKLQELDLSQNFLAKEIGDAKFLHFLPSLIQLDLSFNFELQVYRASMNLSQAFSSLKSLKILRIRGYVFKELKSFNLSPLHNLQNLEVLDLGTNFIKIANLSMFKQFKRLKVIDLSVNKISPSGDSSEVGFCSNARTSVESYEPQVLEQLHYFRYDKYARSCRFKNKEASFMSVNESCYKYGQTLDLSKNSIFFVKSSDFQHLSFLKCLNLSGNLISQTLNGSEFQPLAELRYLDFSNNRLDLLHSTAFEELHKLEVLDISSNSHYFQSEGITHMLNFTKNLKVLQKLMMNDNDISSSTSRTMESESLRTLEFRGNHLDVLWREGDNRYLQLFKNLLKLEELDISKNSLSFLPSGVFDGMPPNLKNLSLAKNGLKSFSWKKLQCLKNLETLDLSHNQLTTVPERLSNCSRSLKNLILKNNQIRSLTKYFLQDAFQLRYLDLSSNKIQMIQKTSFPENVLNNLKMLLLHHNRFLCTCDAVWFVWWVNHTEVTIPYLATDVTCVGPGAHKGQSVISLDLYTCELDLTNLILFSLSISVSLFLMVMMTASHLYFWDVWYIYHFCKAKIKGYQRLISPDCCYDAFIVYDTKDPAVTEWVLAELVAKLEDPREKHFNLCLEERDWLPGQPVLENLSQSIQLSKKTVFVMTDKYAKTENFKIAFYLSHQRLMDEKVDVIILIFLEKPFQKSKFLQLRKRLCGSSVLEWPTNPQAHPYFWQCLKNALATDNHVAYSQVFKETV
IC50 by entry:

| COMPOUND | STUDY_SYSTEM | ENDPOINT_UNIT | IC50 |
| --- | --- | --- | --- |
| Cc1cc(-c2[nH]c3ccc(C4CCN(CC(=O)N(C)C)CC4)cc3c2C(C)C)cc(F)n1 [Example 500] | human TLR7 (Homo sapiens (Human), UniProt Q9NYK1) | nM | 6.3 |
| Cc1cc(-c2[nH]c3ccc(C4CCN(Cc5c[nH]nc5C)CC4)cc3c2C(C)C)cc(C)n1 [Example 439] | human TLR7 (Homo sapiens (Human), UniProt Q9NYK1) | nM | 7.7 |
| Cc1cc(-c2[nH]c3ccc(C4CCNCC4)cc3c2CC(F)F)cc(C)n1 [Example 492] | human TLR7 (Homo sapiens (Human), UniProt Q9NYK1) | nM | 15.8 |
| Cc1cc(-c2[nH]c3ccc(C4CCN(C(=O)CN(C)[C@@H]5CCOC5)CC4)cc3c2C(C)C)cc(C)n1 [Example 402] | human TLR7 (Homo sapiens (Human), UniProt Q9NYK1) | nM | 11.1 |

---

target: UniProtKB Q9NR97; experiment: TLR8 inhibition reporter assay (HEK-Blue cells, SEAP reporter, R848 stimulation); settings: read-out: TLR8 IC50, HEK-Blue cells overexpressing human TLR8, R848 15.9 μM
Please note: IC50 exactly at 10 nM is 0.0. Only values below 10 nM get 1.0.

| CHEMICAL_STRUCTURE | GROUP |
| --- | --- |
| Cc1cc(-c2[nH]c3ccc(C4CCNCC4)cc3c2C(C)C)c(F)cn1 | 1.0 |
| Cc1cc(-c2[nH]c3ccc(C4CCN(CC(=O)NCC5CC5)CC4)cc3c2C(C)C)cc(C)n1 | 0.0 |
| Cc1cc(-c2[nH]c3ccc(C4CCN(C(=O)CN(C)C5CC5)CC4)cc3c2C(C)C)cc(C)n1 | 0.0 |
| Cc1cc(-c2[nH]c3ccc(C4CCN(C(=O)C5CCN(C(C)C)CC5)CC4)cc3c2C(C)C)cc(C)n1 | 0.0 |
| Cc1cc(-c2[nH]c3ccc(C4CCN(C(=O)CN5CC[C@H](N)C5=O)CC4)cc3c2C(C)C)cc(C)n1 | 0.0 |
| Cc1cc(-c2[nH]c3ccc(C4CCN(C(=O)c5ccon5)CC4)cc3c2C(C)C)cc(C)n1 | 0.0 |

---

biological target: human TLR8 (Homo sapiens (Human), UniProt Q9NR97); assay: TLR8 inhibition reporter assay (HEK-Blue cells, SEAP reporter, R848 stimulation); conditions: read-out: TLR8 IC50, HEK-Blue cells overexpressing human TLR8, R848 15.9 μM;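 further: compounds tested from 0.05 nM to 50 µM, 22 h at 37 °C, SEAP measured with HEK-Blue Detection, inhibition relative to agonist plus DMSO versus a known inhibitor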
Sequence (Q9NR97 27-1041): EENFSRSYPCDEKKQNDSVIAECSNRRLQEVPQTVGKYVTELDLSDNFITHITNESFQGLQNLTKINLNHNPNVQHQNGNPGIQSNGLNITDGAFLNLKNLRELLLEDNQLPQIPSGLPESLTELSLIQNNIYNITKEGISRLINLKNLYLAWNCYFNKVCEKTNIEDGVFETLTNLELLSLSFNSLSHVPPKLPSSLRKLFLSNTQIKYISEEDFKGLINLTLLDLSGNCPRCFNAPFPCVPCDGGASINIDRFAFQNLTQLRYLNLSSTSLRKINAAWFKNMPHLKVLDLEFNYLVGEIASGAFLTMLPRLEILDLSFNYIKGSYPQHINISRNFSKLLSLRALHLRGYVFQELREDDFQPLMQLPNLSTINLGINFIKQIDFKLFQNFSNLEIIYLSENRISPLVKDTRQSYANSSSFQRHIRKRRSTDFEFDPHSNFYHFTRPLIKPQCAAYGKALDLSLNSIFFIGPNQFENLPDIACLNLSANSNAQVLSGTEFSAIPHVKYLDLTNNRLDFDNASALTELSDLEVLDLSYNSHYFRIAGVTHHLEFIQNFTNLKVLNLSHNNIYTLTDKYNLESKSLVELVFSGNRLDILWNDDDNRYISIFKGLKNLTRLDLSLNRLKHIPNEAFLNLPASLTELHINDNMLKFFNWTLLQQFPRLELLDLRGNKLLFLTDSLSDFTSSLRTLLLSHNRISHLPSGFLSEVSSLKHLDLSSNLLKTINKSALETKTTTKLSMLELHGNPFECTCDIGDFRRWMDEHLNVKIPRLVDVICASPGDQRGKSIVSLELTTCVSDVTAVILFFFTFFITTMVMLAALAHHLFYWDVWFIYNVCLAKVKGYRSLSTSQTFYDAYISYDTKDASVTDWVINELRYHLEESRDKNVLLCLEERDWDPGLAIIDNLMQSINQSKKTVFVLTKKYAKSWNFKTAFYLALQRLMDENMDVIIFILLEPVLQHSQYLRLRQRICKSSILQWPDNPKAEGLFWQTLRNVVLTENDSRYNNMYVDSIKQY

| MOLECULE | IC50 (nM) |
| --- | --- |
| Cc1cc(-c2[nH]c3ccc(C4CCN(CCO)CC4)cc3c2C(C)C)cc(C)n1 | 2.8 |
| COc1cc(OC)nc(CN2CCC(c3ccc4[nH]c(-c5cc(C)ncc5C)c(C(C)C)c4c3)CC2)n1 | 5.2 |
| Cc1cc(-c2[nH]c3ccc(C4CCN(C5CCNCC5F)CC4)cc3c2C(C)C)ccn1 (centres unmarked) | 6.2 |
| CCc1cc(-c2[nH]c3ccc(C4CCNCC4)cc3c2C(C)C)c(F)cn1 | 19.2 |
| Cc1cc(-c2[nH]c3ccc(C4CCN(C(=O)CC5CC(=O)NC(=O)N5)CC4)cc3c2C(C)C)cc(C)n1 (centres unmarked) | 69.8 |
| Cc1cc(-c2[nH]c3ccc(C4CCN(Cc5nncn5C)CC4)cc3c2C(C)C)cc(C)n1 | 6.3 |
| COC[C@@H]1CCCN1C(=O)CN1CCC(c2ccc3[nH]c(-c4cc(C)nc(C)c4)c(C(C)C)c3c2)CC1 | 13.6 |
| COCCOC(=O)N1CCC(c2ccc3[nH]c(-c4ccnc(C)c4)c(C(C)C)c3c2)CC1 | 363 |
| CNC(=O)CN1CCC(c2ccc3[nH]c(-c4cc(C5CC5)ncc4F)c(C(C)C)c3c2)CC1 | 269 |
| CNC(=O)CN1CCC(c2ccc3[nH]c(-c4cc(C)nc(C)c4)c(CC(F)F)c3c2)CC1 | 81.8 |
| FC(F)Cc1c(-c2ccnc(Cl)c2)[nH]c2ccc(C3CCNCC3)cc12 | 66.4 |
| Cc1cc(-c2[nH]c3ccc(C4CCN(C(=O)[C@@H](N)CCCNC(N)=O)CC4)cc3c2C(C)C)ccn1 | 80.1 |
| Cc1cc(-c2[nH]c3ccc(C4CCN(Cc5ncon5)CC4)cc3c2C(C)C)c(C)cn1 | 6.8 |
| CC(=O)NCC(=O)N1CCC(c2ccc3[nH]c(-c4cc(C)nc(C)c4)c(C(C)C)c3c2)CC1 | 79.8 |
